# credit: ChEMBL document CHEMBL3988442

Organism: Homo sapiens
Assay: To identify inhibition of the IFN signalling (Jak-Stat) pathway via expression of an eGFP reporter gene under the control of an IFN-stimulated response element (ISRE) containing MxA promoter.
Type: functional
Parameters: scale not given: direction of the effect not stated beside the values
Settings: 30 µM
Examples of compounds with documented Percent Effect follow.
Just the number in %, nothing appended.

Use these answered entries as a reference point.
- COMPOUND: "Cc1cnc(CN(C)C2CCN(Cc3nc4ccccc4n3C)C2)o1 (stereo unspecified)"
  Percent Effect [%]: -0.979
- COMPOUND: "Cc1nc(O)c2nnn(C[C@H]3CCCN3C(=O)c3cccc(F)c3)c2n1"
  Percent Effect [%]: 9.46
- COMPOUND: "O=C(NCCC1=CCCCC1)C1CCN(c2ccc3nncn3n2)CC1"
  Percent Effect [%]: 28.5
- COMPOUND: "O=C(NCc1cc(O)ncn1)C1CCOc2ccccc2C1 (stereo unspecified)"
  Percent Effect [%]: 15.2

Assign Percent Effect to the following record: `O=C(NCc1ccoc1)Nc1ccc(CN2CCOC2=O)cc1`
24.8

Assign Percent Effect to the following record: `COc1ccc(CNCc2c(C)nn(C)c2N2CCOCC2)cc1`
-34.5
